Reference source for all entries: patent US9132140B2

- tested target: UniProt Q48434
- Sequence (Q48434 21-381, species assumed): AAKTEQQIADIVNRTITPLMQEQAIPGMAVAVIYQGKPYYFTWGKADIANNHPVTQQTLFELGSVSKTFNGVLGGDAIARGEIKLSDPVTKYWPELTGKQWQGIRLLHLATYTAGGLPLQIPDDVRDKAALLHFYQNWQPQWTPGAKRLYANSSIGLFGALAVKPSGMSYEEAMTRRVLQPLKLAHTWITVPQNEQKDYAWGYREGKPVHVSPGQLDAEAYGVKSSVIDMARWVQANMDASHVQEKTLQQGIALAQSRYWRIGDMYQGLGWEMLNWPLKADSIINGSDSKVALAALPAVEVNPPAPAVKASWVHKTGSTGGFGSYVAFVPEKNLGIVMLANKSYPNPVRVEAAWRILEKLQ
- assay comment: Inhibition of purified beta-lactamase, nitrocefin cleavage
- Type: biochemical
- assay setup: nitrocefin; read-out: Ki (CMY-2, NCF)
pKi: −log10 of the molar value.
observed property: pKi

O=C(O)[C@H]1/C(=C/CO)O[C@@H]2CC(=O)N21 [Clavulanic acid, reference compound]
< 6.00
Cn1cnnc1S[C@H]1Cc2cccc(C(=O)O)c2OB1O
> 7.00
NC(=O)CS[C@H]1Cc2cccc(C(=O)O)c2OB1O
> 7.00
O=C(O)c1cccc2c1OB(O)[C@@H](Sc1nccs1)C2
> 7.00

Query: Using the record for NC(=O)CCS[C@H]1Cc2cccc(C(=O)O)c2OB1O , report its pKi.
Result: > 7.00

Query: Using the record for Nc1nnc(S[C@H]2Cc3cccc(C(=O)O)c3OB2O)s1 , report its pKi.
Result: > 7.00

Query: Using the record for NC(=O)CC1Cc2cccc(C(=O)O)c2OB1O (stereo not drawn) , report its pKi.
Result: > 7.00

Query: Using the record for CC(=O)Nc1nnc(S[C@H]2Cc3cccc(C(=O)O)c3OB2O)s1 , report its pKi.
Result: > 7.00

Query: Using the record for O=C(O)c1cccc2c1OB(O)[C@@H](Sc1nnc[nH]1)C2 , report its pKi.
Result: 6.00 to 7.00
